targetSystem: PD-1/PD-L1 (Homo sapiens (Human), UniProt Q9NZQ7)
Sequence (Q9NZQ7 19-238): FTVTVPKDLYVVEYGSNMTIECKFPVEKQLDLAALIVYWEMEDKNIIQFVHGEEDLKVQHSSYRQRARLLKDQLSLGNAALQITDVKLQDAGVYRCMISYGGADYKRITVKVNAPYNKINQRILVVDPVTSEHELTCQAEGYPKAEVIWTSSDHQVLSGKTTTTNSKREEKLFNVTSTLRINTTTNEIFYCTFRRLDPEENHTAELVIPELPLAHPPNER
experimentNotes: Homogeneous time-resolved fluorescence (HTRF) binding assay
studyConditions: CisBio kit, read-out: IC50 of compounds binding to PD-1/PD-L1
valueKind: pIC50
To interpret pIC50, take it as minus log10 of a concentration measured in moles per litre.

Asked: Request the reported pIC50 associated with COCc1cc(/C=C/c2cccc(-c3ccccc3)c2C#N)c(C(F)(F)F)cc1CN1CCOC[C@H]1C(=O)O
Given back: 6.85

====

targetSystem: PD-1/PD-L1 (Homo sapiens (Human))
experimentNotes: Homogeneous time-resolved fluorescence (HTRF) binding assay
studyConditions: CisBio kit, read-out: IC50 of compounds binding to PD-1/PD-L1
valueKind: pIC50
To interpret pIC50, take it as minus log10 of a concentration measured in moles per litre.

Please review the entries below; each comes with its answer.
smilesData	testValue
N#Cc1c(/C=C/c2cc(CO)c(CN3CCNC[C@H]3C(=O)O)cc2C(F)(F)F)cccc1-c1ccccc1	6.87
Cc1cc(/C=C/c2cccc(-c3ccccc3)c2C#N)c(Cl)cc1CN1CCN(C)C[C@H]1C(=O)O	7.07
COc1cc(/C=C/c2cccc(-c3ccccc3)c2C)c(C(F)(F)F)cc1CN1CCCC[C@@H]1C(=O)O	8.13
N#Cc1c(/C=C/c2cc(CO)c(CN3CCOC[C@H]3C(=O)O)cc2C(F)(F)F)cccc1-c1ccccc1	7.24

Next, consider the following compound.
Asked: Request the reported pIC50 associated with COc1cc(/C=C(\Br)c2cccc(-c3ccccc3)c2C)c(C)cc1CN1CCCC[C@H]1C(=O)O
Given back: 6.77
